Each entry below carries its reported growth.
test system: A549/ATCC NSCLC; assay: NCI-60 one-dose screen, 48 h (100 = growth as untreated, 0 = no growth, -100 = all killed); conditions: 10 µM unless noted
Compounds without any hit were thinned out: in the full panel of roughly 83,000, 20% have a hit. Active and inactive are the calls of the source. Rule for the calls: active = growth percent below 10; inactive = the rest.

Worked cases, answers included:
{"COMPOUND": "Nc1nc(N)c2c(n1)NC(c1ccc(F)cc1)C1CCc3ccccc3C1=N2 (centres undefined)", "growth": "58.6% (inactive)"}
{"COMPOUND": "CCOC(=O)c1sc2nc(-c3cc(OC)c(OC)c(OC)c3)nc(N3CCOCC3)c2c1C", "growth": "28.9% (inactive)"}
{"COMPOUND": "CCc1ccc(-c2ccc(COc3ccc(CC4SC(=O)NC4=O)cc3)cc2)cc1 (centres undefined)", "growth": "64.8% (inactive)"}

[Q] Dear colleague, I am looking for the recorded growth of the following compound: Nc1cc(N)c(N=Nc2ccc(S(=O)(=O)O)cc2)cc1N=Nc1ccc(-c2ccc(N=Nc3ccc(O)c(C(=O)O)c3)cc2)cc1
[A] 101% (inactive)

###

tested on: EKVX NSCLC; assay: NCI-60 one-dose screen, 48 h; settings: 10 µM unless noted
Compounds without any hit were thinned out: in the full panel of roughly 83,000, 20% have a hit. Activity calls are given as the source filed them. How the source made its calls: active means growth percent below 10; inactive means the rest.
Please reply with one of these outcomes: active, inactive

{"COMPOUND": "O=C(Nc1cc(F)cc2cccnc12)c1cnc(N2CCNCC2)cn1", "ASSIGNED LABEL": "inactive"}
{"COMPOUND": "COc1cc(OC)c(/C=C/C(=O)c2c(N)cc(OC)cc2OC)c(OC)c1", "ASSIGNED LABEL": "inactive"}
{"COMPOUND": "C=C(C)[C@@H]1CC[C@]2(C(=O)N3CCN(C)CC3)CC[C@]3(C)[C@H](CC[C@@H]4[C@@]5(C)C/C(=C/c6ccncc6)[C@H](O)C(C)(C)[C@@H]5CC[C@]43C)[C@@H]12", "ASSIGNED LABEL": "active"}
{"COMPOUND": "CCOC(=O)COc1ccc2c(c1)O/C(=C\\c1ccc(O)cc1)C2=O", "ASSIGNED LABEL": "inactive"}
{"COMPOUND": "Cc1cc(C)c(O)c(CNCCCCCCNCc2cc(C)cc(C)c2O)c1", "ASSIGNED LABEL": "inactive"}

[Q] Could you kindly confirm the outcome this assay logged for C[C@H]1[C@H](C)CC[C@]2(COC(=O)CCC(=O)O)CC[C@]3(C)C(=CC[C@@H]4[C@@]5(C)CCCNC(C)(C)[C@@H]5CC[C@]43C)[C@H]12 ?
[A] inactive

[Q] One more compound: COc1ccc(C(=O)CCC(=O)O)cc1
[A] inactive

[Q] Then what about the compound COc1ccc(/C=C(/C2=NCCN2)n2ccc3ccccc32)cc1 ?
[A] inactive

[Q] Another compound: CC(C)c1ccc(C(=O)Nc2sc3c(c2C#N)CCC(=O)C3)cc1
[A] active

[Q] Query O=C1/C(=C\c2cn(CC(O)CN3CCCCC3)c3ccccc23)c2ccccc2N1c1c(Cl)cccc1Cl (stereo not given) next
[A] active

###

tested on: K-562 leukemia; assay: NCI-60 one-dose screen, 48 h; details: 10 µM unless noted
About 83,000 compounds went through this panel and 20% of them were active in at least one assay; those are over-represented in the sample as a whole. Active and inactive are the calls of the source. The calls were made as follows: active = growth percent below 10; inactive = the rest.
Response enum: active, inactive

{"COMPOUND": "O=c1cc(-c2ccccc2)oc2c(O)c(O)ccc12", "ASSIGNED LABEL": "inactive"}
{"COMPOUND": "CNC(=O)c1cc(Oc2ccc3nc(NC(=O)c4ccc5ncccc5c4)sc3c2)ccn1", "ASSIGNED LABEL": "inactive"}
{"COMPOUND": "CCC(C)[C@H](NC(=O)NC(=O)NC(=O)CI)C(=O)OC (stereo partly drawn)", "ASSIGNED LABEL": "active"}
{"COMPOUND": "CCN(CC)c1ccc2cc(C(Nc3ccc(C)cc3)c3nnnn3C(C)(C)C)c(=O)oc2c1 (stereo not drawn)", "ASSIGNED LABEL": "inactive"}
{"COMPOUND": "COc1ccc(-c2cc(-c3ccc(Cl)cc3)nc(NCCCCNc3ccnc4cc(Cl)ccc34)n2)cc1", "ASSIGNED LABEL": "active"}
{"COMPOUND": "CCOc1ccccc1/C=N\\Nc1ccc(S(=O)(=O)c2ccc(N/N=C/c3ccccc3OCC)cc2)cc1", "ASSIGNED LABEL": "inactive"}

[Q] Any idea what this test logged for C=C(C)[C@@H]1CC[C@]2(C)[C@H](CC[C@@H]3[C@@H]([C@@](C)(O)CCC=C(C)C)CC[C@]32C)[C@@]1(C)CCC(=O)N1CCN(C)CC1 ?
[A] active

[Q] Follow-up item: COc1cc2c(cc1OCCCN1CCN(CCCOc3cc4c(cc3OC)C(=O)N3C[C@H](F)C[C@H]3C=N4)CC1)N=C[C@@H]1C[C@@H](F)CN1C2=O
[A] active

###

test system: NCI-H522 lung; assay: NCI-60 one-dose screen, 48 h; details: 10 µM unless noted
The panel holds about 83,000 compounds, 20% with a hit somewhere; the sample as a whole holds those more often. Activity calls are given as the source filed them. How the source made its calls: active means growth percent below 10; inactive means the rest.
Lab note: assign the record to one of active, inactive

A selection of reference data follows.
{"COMPOUND SMILES": "Cc1cc(C)c(-c2cc(O)c(-c3c(C)cc(C)cc3C)cc2O)c(C)c1", "ASSIGNED LABEL": "active"}
{"COMPOUND SMILES": "CC(=O)OC[C@]12CC[C@@H]([C@@H](C)C(N)=O)[C@@H]1[C@H]1CC[C@@H]3[C@@]4(C)CC[C@H](OC(C)=O)C(C)(C)[C@@H]4CC[C@@]3(C)[C@]1(C)CC2", "ASSIGNED LABEL": "active"}
{"COMPOUND SMILES": "CCCOc1ccc(-c2nc(-c3ccc(N)cc3)cs2)cc1", "ASSIGNED LABEL": "inactive"}

[Q] Any idea what this test logged for N=C(N)c1ccc(-c2ccc(-c3ccc(-c4cccs4)s3)s2)cc1F ?
[A] inactive

[Q] Same again, this time with CCOC(=O)C(=Cc1ccccc1[N+](=O)[O-])C(=O)OCC
[A] active

###

system: RPMI-8226 leukemia; assay: NCI-60 one-dose screen, 48 h; details: 10 µM unless noted
About 83,000 compounds went through this panel and 20% of them were active in at least one assay; those are over-represented in the sample as a whole. Active and inactive are the calls of the source. Rule for the calls: active = growth percent below 10; inactive = the rest.
Give one outcome, nothing more. List: active, inactive

Past entries and their recorded results:
{"MOLECULE": "CCCCC1COc2cccc3c2N1C=C/C3=C\\C(=O)n1ccc2ccccc21 (centres undefined)", "ASSIGNED LABEL": "inactive"}
{"MOLECULE": "Cn1cc(-c2nnc(-c3cn(C)c4ncccc34)s2)c2ccccc21", "ASSIGNED LABEL": "inactive"}
{"MOLECULE": "Cc1cc2c(C(C)C)c(O)c(O)c(C=NCc3ccoc3)c2c(O)c1-c1c(C)cc2c(C(C)C)c(O)c(O)c(C=NCc3ccco3)c2c1O", "ASSIGNED LABEL": "inactive"}
{"MOLECULE": "C[C@]12CCc3nc(Nc4ccccc4)sc3C1=CC[C@@H]1[C@@H]2CC[C@]2(C)/C(=N/NC(N)=S)CC[C@@H]12", "ASSIGNED LABEL": "active"}

// switching to the query molecule
[Q] Assay outcome for NC(=O)c1c(NC(=O)COC(=O)Cc2ccccc2F)sc2c1CCC2 : what was it?
[A] inactive

###

system: OVCAR-8 ovarian; test: NCI-60 one-dose screen, 48 h; conditions: 10 µM unless noted
About 83,000 compounds went through this panel and 20% of them were active in at least one assay; those are over-represented in the sample as a whole. Calls of active or inactive are those of the source. The calls were made as follows: active = growth percent below 10; inactive = the rest.
Valid outcomes are listed here; reply with one: yes (1) = active, no (0) = inactive

Examples with answers:
{"COMPOUND": "CC[C@@](C)(NC(=O)[C@H](C)NC(=O)CCNC(=O)C(C)(C)NC(=O)[C@H](C)NC(=O)[C@@H]1CCCN1C(=O)[C@@](C)(CC)NC(=O)[C@H](Cc1ccccc1)NC(=O)C1CCCN1C(=O)C(C)(C)NC(=O)C1CCCN1C(=O)C(C)(C)NC(C)=O)C(=O)NCCC(=O)N[C@@H](CC(C)C)C(=O)NC(C)(C)C(=O)NCCC(=O)N[C@@H](CC(C)C)C(=O)NC(C)(C)C(=O)NC(C)(C)C(=O)N[C@@H](CC(C)C)C(=O)NCCC(=O)NCO (stereo partly specified)", "ASSIGNED LABEL": "yes (1)"}
{"COMPOUND": "CC(C)(C)c1cc(C(=O)Nc2cc3ccccc3cc2C(=O)NCCN)cc(C(C)(C)C)c1", "ASSIGNED LABEL": "yes (1)"}
{"COMPOUND": "O=C1CC(c2ccccc2)Cc2nc3ccc(Cl)cc3cc21 (stereo unspecified)", "ASSIGNED LABEL": "no (0)"}

[Q] Hi, sorry to bother you, what did the test record for COc1ccc(N(c2nc(-c3ccc([N+](=O)[O-])cc3)cs2)C(C)C)cc1 ?
[A] no (0)

[Q] Then this compound: CCCCCCCCCCCCCC[n+]1cccc(C(N)=O)c1
[A] no (0)

[Q] Same read-out for c1cc2ccc1CNCCN1CCNCc3ccc(cc3)Oc3ccc(cc3)CNCCN(CCNCc3ccc(cc3)O2)CCNCc2ccc(cc2)Oc2ccc(cc2)CNCC1 ?
[A] yes (1)

The reported numbers originate from PubChem BioAssay (NCI).
